Quick note: these are IC50 numbers for system: cGMP-specific 3',5'-cyclic phosphodiesterase [531-875] (Homo sapiens)
Return type: number; implicit unit µM.

Recorded results for 3 compounds are shown here.
compound	measuredResult
COc1ccc(C(=O)Nc2c(Cl)cncc2Cl)cc1OC1CCCC1	3.5
COc1cc(-c2ccc(=O)[nH]n2)ccc1OC(F)F	81
COc1ccc(C(C)=NOC(N)=O)cc1OC1CCCC1	53

From here, focus on the item given below.
Form: Entry = COc1ccc(C2(C#N)CCC(C(=O)O)CC2)cc1OC1CCCC1 (centres undefined) | System = cGMP-specific 3',5'-cyclic phosphodiesterase [531-875] (Homo sapiens) | IC50 = ____
53
